# assay details: Pharmacokinetic study in SD rats (plasma and brain)
# Assay type: in vivo
# condition parameters: male, rat, 6.1 umol/kg, IV 6.1 μmol/kg, plasma
experimental endpoint: C0 (nM)

INSERT INTO assay_data (compound, experimental_endpoint, unit_text, quantitative_readout) VALUES
  ('C[C@@]1(O)CC[C@H]2[C@H](CC[C@@H]3[C@@H]2CC[C@]2(C)[C@@H](C(=O)Cn4cnn(-c5cc(F)nc(F)c5)c4=O)CC[C@@H]32)C1 [Compound 41]', 'C0', 'nM', 2110);

----------
# assay details: In vitro liver microsomal stability assay, rat
# Type: in vitro ADME
# condition parameters: Rat liver microsomes
# Procedure: 1) Preparation of working solutions of test samples: The test samples were diluted with acetonitrile to 100 M. 2) Preparation of a working solution of liver microsomes: liver microsomes were diluted with 100 mM phosphate-buffered saline to 0.56 mg/mL. […] 5) After the reaction was stopped, each sample was vortexed for 30 s and then centrifuged at 13,500 rpm for 10 min. […] The mixture was well mixed by vortexing and analyzed by LC-MS/MS. […]
Binning of half-life at 1 µM into classes: interval 1 (below 20 min), interval 2 (20 min to below 40 min), interval 3 (40 min or more)

INSERT INTO results (compound_structure, assigned_label) VALUES
  ('C[C@@]1(O)CC[C@H]2[C@H](CC[C@@H]3[C@@H]2CC[C@]2(C)[C@@H](C(=O)Cn4cnn(-c5cc(F)nc(F)c5)c4=O)CC[C@@H]32)C1', 'interval 3'),
  ('C[C@@]1(O)CC[C@H]2[C@H](CC[C@@H]3[C@@H]2CC[C@]2(C)[C@@H](C(=O)Cn4cnn(-c5cc(F)ccc5F)c4=O)CC[C@@H]32)C1', 'interval 2'),
  ('C[C@@]1(O)CC[C@H]2[C@H](CC[C@@H]3[C@@H]2CC[C@]2(C)[C@@H](C(=O)Cn4cnn(-c5ccccc5)c4=O)CC[C@@H]32)C1', 'interval 2'),
  ('C[C@@]1(O)CC[C@H]2[C@H](CC[C@@H]3[C@@H]2CC[C@]2(C)[C@@H](C(=O)Cn4cnn(-c5cccc(F)n5)c4=O)CC[C@@H]32)C1', 'interval 1'),
  ('C[C@@]1(O)CC[C@H]2[C@H](CC[C@@H]3[C@@H]2CC[C@]2(C)[C@@H](C(=O)Cn4cnn(-c5nccs5)c4=O)CC[C@@H]32)C1', 'interval 1'),
  ('C[C@@]1(O)CC[C@H]2[C@H](CC[C@@H]3[C@@H]2CC[C@]2(C)[C@@H](C(=O)Cn4cnn(-c5ccc(F)cc5F)c4=O)CC[C@@H]32)C1', 'interval 2'),
  ('COCCn1ncn(CC(=O)[C@H]2CC[C@H]3[C@@H]4CC[C@@H]5C[C@](C)(O)CC[C@@H]5[C@H]4CC[C@]23C)c1=O', 'interval 1'),
  ('C[C@@]1(O)CC[C@H]2[C@H](CC[C@@H]3[C@@H]2CC[C@]2(C)[C@@H](C(=O)Cn4cnn(-c5ccnc(OCC(F)(F)F)c5)c4=O)CC[C@@H]32)C1', 'interval 3'),
  ('Cc1cc(-n2ncn(CC(=O)[C@H]3CC[C@H]4[C@@H]5CC[C@@H]6C[C@](C)(O)CC[C@@H]6[C@H]5CC[C@]34C)c2=O)ccn1', 'interval 2'),
  ('C[C@@]1(O)CC[C@@]2(C)[C@@H](CC[C@@H]3[C@@H]2CC[C@]2(C)[C@@H](C(=O)Cn4cnn(-c5cccc(F)c5)c4=O)CC[C@@H]32)C1', 'interval 3'),
  ('C[C@@]1(O)CC[C@H]2[C@H](CC[C@@H]3[C@@H]2CC[C@]2(C)[C@@H](C(=O)Cn4cnn(-c5ccnc(F)c5)c4=O)CC[C@@H]32)C1', 'interval 2'),
  ('C[C@@]1(O)CC[C@H]2[C@H](CC[C@@H]3[C@@H]2CC[C@]2(C)[C@@H](C(=O)Cn4ccn(-c5cccc(F)c5)c4=O)CC[C@@H]32)C1', 'interval 1'),
  ('C[C@@]1(O)CC[C@H]2[C@H](CC[C@@H]3[C@@H]2CC[C@]2(C)[C@@H](C(=O)Cn4cnn(C5CCCCC5)c4=O)CC[C@@H]32)C1', 'interval 1'),
  ('C[C@@]1(O)CC[C@H]2[C@H](CC[C@@H]3[C@@H]2CC[C@]2(C)[C@@H](C(=O)Cn4cnn(-c5cccc(C#N)c5)c4=O)CC[C@@H]32)C1', 'interval 2'),
  ('Cn1ncn(CC(=O)[C@H]2CC[C@H]3[C@@H]4CC[C@@H]5C[C@](C)(O)CC[C@@H]5[C@H]4CC[C@]23C)c1=O', 'interval 2'),
  ('C[C@@]1(O)CC[C@H]2[C@H](CC[C@@H]3[C@@H]2CC[C@]2(C)[C@@H](C(=O)Cn4cnn(-c5ccc(F)cc5)c4=O)CC[C@@H]32)C1', 'interval 2'),
  ('C[C@@]1(O)CC[C@H]2[C@H](CC[C@@H]3[C@@H]2CC[C@]2(C)[C@@H](C(=O)Cn4cnn(C5CCCC5)c4=O)CC[C@@H]32)C1', 'interval 2'),
  ('C[C@@]1(O)CC[C@H]2[C@H](CC[C@@H]3[C@@H]2CC[C@]2(C)[C@@H](C(=O)Cn4cnn(-c5ccnc(OC(F)(F)F)c5)c4=O)CC[C@@H]32)C1', 'interval 3'),
  ('C[C@@]1(O)CC[C@H]2[C@H](CC[C@@H]3[C@@H]2CC[C@]2(C)[C@@H](C(=O)Cn4cnn(-c5cc(F)cc(F)c5)c4=O)CC[C@@H]32)C1', 'interval 3'),
  ('C[C@@]1(O)CC[C@H]2[C@H](CC[C@@H]3[C@@H]2CC[C@]2(C)[C@@H](C(=O)Cn4cnn(-c5cccc(F)c5)c4=O)CC[C@@H]32)C1', 'interval 3'),
  ('C[C@@]1(O)CC[C@H]2[C@H](CC[C@@H]3[C@@H]2CC[C@]2(C)[C@@H](C(=O)Cn4cnn(-c5cccc(N)c5)c4=O)CC[C@@H]32)C1', 'interval 1');
